Entries annotated with measured inhibition at 7.5 min, 1 μM
System: CYP2C9
protocol: in vitro
measurement setup: Sprague-Dawley, rat, microsomes, pH 7.4, % inhibition of CYP2C9 activity

{"smiles representation": "C=CC(=C)CCC=C(C)C", "inhibition at 7.5 min, 1 μM, %": 24.1}
{"smiles representation": "O=C1C[C@@H](c2ccc(O)c(O)c2)Oc2cc(O)cc(O)c21", "inhibition at 7.5 min, 1 μM, %": 32.8}
{"smiles representation": "O=c1c(O)c(-c2ccc(O)cc2)oc2cc(O)cc(O)c12", "inhibition at 7.5 min, 1 μM, %": -22.3}
